Provenance of the data: PubChem BioAssay (NCI)

# Tested on: T-47D breast
# method summary: NCI-60 one-dose screen, 48 h (100 = growth as untreated, 0 = no growth, -100 = all killed)
# condition summary: 10 µM unless noted
This is part of a sample that, as a whole, favours compounds with a hit. Of some 83,000 tested, about 20% had one in any assay.
# reported growth; entries follow
endpoint label: growth (%)

INSERT INTO assay_data (substance_smiles, endpoint_label, unit_label, reported) VALUES
  ('O=C1/C(=C/c2ccc(F)cc2)C=C(c2ccccc2)N1CCc1ccccc1', 'growth', '%', 52.1),
  ('CC1=NOC(=O)/C1=C\c1ccc(O)cc1', 'growth', '%', 104),
  ('O=c1oc2ccccc2c(Cl)c1Cl', 'growth', '%', 43.1);

====

# Test system: PC-3 prostate
# method summary: NCI-60 one-dose screen, 48 h
# condition summary: 10 µM unless noted
The panel holds about 83,000 compounds, 20% with a hit somewhere; the sample as a whole holds those more often. Activity calls are given as the source filed them. The calls were made as follows: active = growth percent below 10; inactive = the rest.
Outcomes: YES for active, NO for inactive

INSERT INTO results (substance_smiles, class) VALUES
  ('COc1cccc(-c2nc3sccn3c2/C=C/C(=O)c2ccc(C(F)(F)F)cc2)c1', 'NO'),
  ('COc1cccc(/C=C/C(=O)c2c(C)nc3ccccc3c2/C=C/c2ccc(C)cc2)c1OC', 'NO'),
  ('CCc1ccccc1-n1c(N)c(C#N)c(-c2ccc(N(C)C)cc2)c(C#N)c1=O', 'NO'),
  ('C[n+]1cccc(CC(=O)NO)c1', 'NO'),
  ('O=C(/C=C/c1c(Cl)nc2sccn12)c1nccs1', 'NO'),
  ('Cn1cc(-c2csc(-c3ccccc3)n2)c2cccnc21', 'YES');

====

# System: NCI-H322M lung
# method summary: NCI-60 one-dose screen, 48 h
# condition summary: 10 µM unless noted
Compounds without any hit were thinned out: in the full panel of roughly 83,000, 20% have a hit. Active and inactive are the calls of the source. The calls were made as follows: active = growth percent below 10; inactive = the rest.
Possible outcomes: YES (active), NO (inactive)

INSERT INTO assay_data (compound, class) VALUES
  ('C=C(C)[C@@H]1CC[C@]2(C(=O)NC3CCCCC3)CC[C@]3(C)[C@H](CC[C@@H]4[C@@]5(C)CCC(=O)C(C)(C)[C@@H]5CC[C@]43C)[C@@H]12', 'NO'),
  ('COCCc1ccc(OCC(O)CNC(C)C)cc1 (stereo not given)', 'NO'),
  ('CN(C)c1ccc(-c2ccc3[nH]c(=O)nc(-c4ccccc4)c3c2)cn1', 'NO'),
  ('N#Cc1c(-c2cccc(Cl)c2)cc(-c2cccc(F)c2)[nH]c1=O', 'NO'),
  ('CCCCN(CCCC)CC(C)(C)C(O)c1ccc(OC)c2ccccc12 (stereo not given)', 'NO'),
  ('O=C(COc1ccc(/C=C2\Oc3ccccc3C2=O)cc1)c1ccc(Cl)cc1', 'NO'),
  ('O=C1C=C[C@]2(C[C@@H](c3cccc(C(F)(F)F)c3)O[C@@H](c3cccc(C(F)(F)F)c3)O2)O1', 'NO'),
  ('COC(=O)[C@H](CSC)N(C)C(=O)[C@@H]1CSSC[C@@H](NC(=O)c2nc3ccccc3cc2O)C(=O)NCC(=O)N1C', 'NO'),
  ('COc1cccc(-c2nc3sccn3c2-c2ccnc(NCCNS(=O)(=O)c3cccc(F)c3)c2)c1', 'NO'),
  ('O=C1c2cccc(NCCN=Cc3cc([N+](=O)[O-])ccc3O)c2C(=O)c2c(NCCN=Cc3cc([N+](=O)[O-])ccc3O)cccc21', 'NO'),
  ('N#CC1=C(c2ccc(Br)cc2)NC(SCC(=O)c2ccc(Br)cc2)NC1=O (stereo not given)', 'NO'),
  ('N#Cc1c(-c2cccc(Cl)c2)cc(-c2cccc(Cl)c2)[nH]c1=O', 'NO'),
  ('Cc1cc(C)c(-c2c(C)cc(C)cc2CBr)c(CBr)c1', 'NO'),
  ('O=[N+]([O-])c1ccc(Sc2cccc[n+]2[O-])c2nonc12', 'NO'),
  ('CCCCCS(=O)(=O)Nc1ccc(C(=O)O)cc1', 'NO'),
  ('CCOc1c(C#N)nnc2c(C#N)c(NC(=O)c3ccccc3)nn12', 'NO'),
  ('O=C1/C(=C/c2ccccc2)CCc2nc3ccccc3c(/C=C/c3ccc(Cl)cc3)c21', 'NO'),
  ('Cc1nc2ccccc2c(/C=C/c2ccc(Cl)cc2)c1C(=O)/C=C/c1ccc(F)cc1', 'NO'),
  ('N#CCN1C(=O)C2C3=C(CCCC3)SC2N=C1CN1CCCC1 (stereo not given)', 'NO'),
  ('COc1ccc(/C=N\NC(=O)c2cc(-c3ccc(Br)cc3)n(-c3ccc(S(N)(=O)=O)cc3)n2)cc1', 'NO'),
  ('COc1cc(C2NC(=O)c3ccccc3N2)ccc1OCCCCCOc1c(OC)cc(C2=NOC(c3cc(OC)c(OC)c(OC)c3)C2)cc1OC (stereo not given)', 'NO'),
  ('N=C(N)c1ccc(-c2ccc(-c3cncc4ccccc34)s2)s1', 'YES'),
  ('COc1cc2c(cc1-c1c(C)noc1C)ncc1nc(C3CCC(F)(F)CC3)n(C3CCC(OC(F)F)CC3)c12 (stereo not given)', 'NO'),
  ('O=C(NCCCNc1cc(-c2cn(-c3ccccc3)nc2-c2cccc(O)c2)ccn1)c1ccccc1', 'NO'),
  ('CCCCCCCCCCN(CCCCCCCCCC)CC(=O)c1ccc2cc(Br)c3ccccc3c2c1', 'NO'),
  ('Cc1cccc(Cc2cnc(NC(=O)/C=C/c3ccco3)s2)c1', 'NO'),
  ('N/C(=N/N=C/c1ccccc1)N/N=C\c1ccccc1', 'NO'),
  ('O=c1c2cc(F)ccc2sc2c(NCCN3CCCCC3)nc3ccccc3c12', 'NO'),
  ('COc1ccc(/C=C/c2c(C(=O)/C=C/c3ccc(F)cc3)c(C)nc3ccccc23)cc1', 'NO'),
  ('COC(=O)[C@]12CC[C@@H](C)[C@H](C)[C@@H]1C1=CC[C@@H]3[C@@]4(C)C(C=O)=C[C@@](C)(COC(=O)c5ccco5)C4=CC[C@@]3(C)[C@]1(C)CC2', 'NO');

====

# Tested on: HS 578T breast
# method summary: NCI-60 one-dose screen, 48 h (100 = growth as untreated, 0 = no growth, -100 = all killed)
# condition summary: 10 µM unless noted
The panel holds about 83,000 compounds, 20% with a hit somewhere; the sample as a whole holds those more often.
Doc: threshold 70% (exclusive). Items with growth beneath it return Condition met; others return Condition not met.

INSERT INTO measurements (compound, class) VALUES
  ('CC1(C)CC[C@]2(C(=O)N3CCOCC3)CC[C@]3(C)C(=CC[C@@H]4[C@@]5(C)CC[C@H](OC(=O)c6cccnc6)C(C)(C)[C@@H]5CC[C@]43C)[C@@H]2C1', 'Condition not met'),
  ('COc1ccc(NC(=O)CSc2nc(C)c(C(C)=O)n2-c2ccc([N+](=O)[O-])cc2)cc1', 'Condition not met'),
  ('COc1ccc(C2C(c3nn[nH]n3)=C(N)Oc3c2ccc2ccccc32)cc1 (stereo unspecified)', 'Condition not met'),
  ('C#CCOc1nc(C)cc(C)c1C#N', 'Condition not met'),
  ('C=C(C)[C@@H]1CC[C@]2(C)[C@H](CC=C3[C@@H]4CC(C)(C)CC[C@]4(C(N)=O)CC[C@]32C)[C@@]1(C)CCC#N', 'Condition met'),
  ('O=[N+]([O-])c1ccc(N2c3ccncc3Sc3ccncc32)cc1', 'Condition not met'),
  ('COc1ccc(-c2nc3c(N)c(CO)c(C)nc3o2)cc1', 'Condition not met'),
  ('COc1ccc(Cl)cc1NC(=O)C(Br)C(Br)C(=O)O (stereo unspecified)', 'Condition not met'),
  ('N#C/C(=C\c1ccc(-c2ccccc2F)o1)c1nc(-c2ccco2)cs1', 'Condition not met'),
  ('COC(=O)c1c2c(c[n+]([O-])c1C)C(=O)C=CC2=O', 'Condition not met'),
  ('CCN1C(=O)N(CC)C2Nn3c(s/c(=C\c4cccc([N+](=O)[O-])c4)c3=O)=NC21 (stereo unspecified)', 'Condition met'),
  ('C=CCOC1=CC(=O)c2ccccc2C1=O', 'Condition not met'),
  ('Cc1cc(NCc2cc(Nc3ccnc4cc(Cl)ccc34)ccc2F)nc(N2CCN(c3ccccc3)CC2)n1', 'Condition met'),
  ('COc1ccc(/C=N\NC(=O)c2cc(-c3ccc(Br)cc3)n(-c3ccc(S(N)(=O)=O)cc3)n2)cc1', 'Condition met'),
  ('CCN(CC)c1ccc2nc3c4ccccc4c(=NC(=O)c4ccccc4-c4c5ccc(N(CC)CC)cc5[o+]c5cc(N(CC)CC)ccc45)cc-3oc2c1', 'Condition met'),
  ('O=c1[nH][n+](-c2ccc(Cl)cc2)no1', 'Condition not met'),
  ('O=c1c2cc(F)ccc2sc2c(NCCCN3CCCC3)nc3ccccc3c12', 'Condition met'),
  ('Cc1nn(-c2ccccc2)c2nc3c(c(-c4ccc(Cl)cc4)c12)CNC1(CCSCC1)N3', 'Condition not met'),
  ('O=C1N=c2cc3c(cc2=C/C1=C/c1sc(=S)n(CCc2ccc(O)cc2)c1O)OCCO3', 'Condition not met'),
  ('O=C1/C(=C/c2ccc(Br)cc2)C=C(c2ccccc2)N1CCc1ccccc1', 'Condition met'),
  ('Cc1ccc2nc(NC(=O)CSc3nc(Nc4ccc([N+](=O)[O-])cc4)c(C#N)c(-c4ccccc4)n3)sc2c1', 'Condition not met'),
  ('CC(=O)OC1CCC2(C)C(=CC3C4CCC(=O)C4(C)CCC32)C1 (stereo unspecified)', 'Condition not met'),
  ('Cc1cc(N2CCCC2)nc(NCc2cc(Nc3ccnc4cc(Cl)ccc34)ccc2F)n1', 'Condition met'),
  ('CC1(C)CC(=O)C2=C(C1)N(c1ccc(OC(F)(F)F)cc1)C(N)=C(C#N)C2c1ccc(Cl)cc1 (stereo unspecified)', 'Condition met'),
  ('CCCCCCCOc1c(OC)cc(C2CC(=O)Nc3c2c(C)nn3-c2nc3ccccc3[nH]2)cc1OC (stereo unspecified)', 'Condition met'),
  ('O=C1/C(=C\c2cccnc2)SC(=S)N1CCc1ccc(O)cc1', 'Condition not met'),
  ('COC(=O)[C@]12CC[C@@H](C)[C@H](C)[C@@H]1C1=CC[C@@H]3[C@@]4(C)C(C=O)=C[C@@](C)(COC(C)=O)[C@@H]4[C@H](O)C[C@@]3(C)[C@]1(C)CC2', 'Condition met'),
  ('N#C/C(=C/C=C/c1cccc(Cl)c1)S(=O)c1ccccc1 (stereo unspecified)', 'Condition met'),
  ('Cc1cc(NCc2cc(Nc3ccnc4cc(Cl)ccc34)ccc2F)nc(N2CCCC2)n1', 'Condition met'),
  ('N#Cc1c(-c2cccc(Cl)c2)cc(-c2cccc(F)c2)[nH]c1=O', 'Condition not met'),
  ('N#CC1=C(NC=O)Oc2c(ccc3ccccc23)C1c1ccccc1 (stereo unspecified)', 'Condition met'),
  ('CC(=O)C(C)Cc1cc2c(cc1C)C(C)(C)CCC2(C)C (stereo unspecified)', 'Condition not met'),
  ('COc1ccc(C(=NN=C(N)N)c2ccc(OC)cc2)cc1', 'Condition met'),
  ('O=C1CC(N2C(=O)/C(=C/C(Cl)=C\c3ccc([N+](=O)[O-])cc3)SC2=S)C(=O)N1c1ccc(O)cc1 (stereo unspecified)', 'Condition met'),
  ('C[C@]12CC[C@@H]3c4cc(OC(F)F)c(O)cc4CC[C@H]3[C@@H]1CC[C@@H]2OS(N)(=O)=O', 'Condition met');
